measurement-target: human Nav1.8 (Homo sapiens (Human))
Sequence (Q9Y5Y9 whole entry): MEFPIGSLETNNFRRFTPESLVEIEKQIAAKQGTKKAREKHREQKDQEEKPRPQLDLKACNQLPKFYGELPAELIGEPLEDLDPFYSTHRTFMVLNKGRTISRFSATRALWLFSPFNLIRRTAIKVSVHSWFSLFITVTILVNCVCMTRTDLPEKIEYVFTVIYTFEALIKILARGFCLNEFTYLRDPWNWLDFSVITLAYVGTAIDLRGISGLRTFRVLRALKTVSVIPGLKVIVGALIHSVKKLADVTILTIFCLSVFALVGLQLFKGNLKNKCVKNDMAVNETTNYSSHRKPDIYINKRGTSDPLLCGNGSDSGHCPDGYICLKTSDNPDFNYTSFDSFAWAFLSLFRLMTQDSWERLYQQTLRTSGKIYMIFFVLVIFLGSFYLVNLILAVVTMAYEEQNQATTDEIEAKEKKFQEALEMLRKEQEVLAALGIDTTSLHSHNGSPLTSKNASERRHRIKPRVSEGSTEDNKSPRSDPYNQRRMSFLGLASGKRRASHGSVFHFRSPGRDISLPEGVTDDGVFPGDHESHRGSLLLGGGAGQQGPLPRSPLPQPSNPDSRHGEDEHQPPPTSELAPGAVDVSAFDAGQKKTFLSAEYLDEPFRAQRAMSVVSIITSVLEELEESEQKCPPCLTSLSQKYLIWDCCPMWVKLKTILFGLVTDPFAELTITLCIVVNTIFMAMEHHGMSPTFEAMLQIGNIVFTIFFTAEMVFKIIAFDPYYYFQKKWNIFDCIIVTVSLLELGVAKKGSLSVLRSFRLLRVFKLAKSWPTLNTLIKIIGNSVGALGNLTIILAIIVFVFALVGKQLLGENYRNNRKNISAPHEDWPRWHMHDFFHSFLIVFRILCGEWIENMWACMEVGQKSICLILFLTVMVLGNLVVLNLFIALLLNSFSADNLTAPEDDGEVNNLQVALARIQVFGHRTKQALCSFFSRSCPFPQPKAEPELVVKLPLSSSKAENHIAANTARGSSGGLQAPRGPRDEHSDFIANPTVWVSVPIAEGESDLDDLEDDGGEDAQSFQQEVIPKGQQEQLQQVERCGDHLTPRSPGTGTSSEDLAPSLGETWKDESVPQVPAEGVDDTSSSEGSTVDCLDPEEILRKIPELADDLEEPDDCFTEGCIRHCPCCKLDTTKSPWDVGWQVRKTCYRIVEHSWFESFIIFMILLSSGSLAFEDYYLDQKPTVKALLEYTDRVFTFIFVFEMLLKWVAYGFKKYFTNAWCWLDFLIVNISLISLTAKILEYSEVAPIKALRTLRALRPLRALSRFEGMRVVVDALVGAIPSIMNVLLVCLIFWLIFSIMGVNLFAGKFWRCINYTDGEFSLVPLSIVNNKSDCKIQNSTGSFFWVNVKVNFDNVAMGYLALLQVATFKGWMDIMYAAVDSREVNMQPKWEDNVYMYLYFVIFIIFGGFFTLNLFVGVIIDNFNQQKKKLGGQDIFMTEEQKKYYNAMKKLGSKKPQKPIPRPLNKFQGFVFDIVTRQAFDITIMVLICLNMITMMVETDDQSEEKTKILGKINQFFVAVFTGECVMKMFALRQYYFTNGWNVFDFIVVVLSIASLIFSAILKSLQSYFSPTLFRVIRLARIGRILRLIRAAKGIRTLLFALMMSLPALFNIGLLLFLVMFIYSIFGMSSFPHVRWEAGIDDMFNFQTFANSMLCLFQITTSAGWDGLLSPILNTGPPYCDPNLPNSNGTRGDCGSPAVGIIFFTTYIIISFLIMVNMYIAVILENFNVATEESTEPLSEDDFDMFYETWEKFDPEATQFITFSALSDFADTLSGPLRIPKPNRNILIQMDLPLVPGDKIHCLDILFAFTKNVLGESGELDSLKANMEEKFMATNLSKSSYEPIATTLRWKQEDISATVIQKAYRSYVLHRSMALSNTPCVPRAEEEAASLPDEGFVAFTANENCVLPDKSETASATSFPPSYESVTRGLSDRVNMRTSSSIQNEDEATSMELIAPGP
method: FRET-based membrane potential assay, recombinant human sodium channel Nav1.8
run-conditions: HEK293 cells stably expressing recombinant human Nav1.8; depolarization with veratridine (EC80) + scorpion venom
pIC50: −log10 of the molar value.
Classify as follows. Reported pIC50 greater than or equal to 5: t. Reported pIC50 below: f.

Worked examples, 2 compounds total:
1) CC(C)OC(=O)N1CCN(c2cccc3c2cnn3-c2ccccc2F)C1=O ... t
2) O=C(CN1CCN(c2cccc3c2cnn3-c2ccccc2F)C1=O)N1CC2(COC2)C1 ... f

Challenge: In plain terms: is recorded pIC50 at least 5 for "O=C(CN1CCN(c2cccc3c2cnn3-c2ccccc2F)C1=O)N1CC(F)C1" ?
Response given: t

Challenge: In plain terms: is recorded pIC50 at least 5 for "CCOc1nnc(CN2CCN(c3cccc4c3cnn4-c3ccccc3F)C2=O)s1" ?
Response given: t

---

measurement-target: UniProt Q15858
method: FRET-based membrane potential assay, recombinant human sodium channel Nav1.7
run-conditions: HEK293 cells stably expressing recombinant human Nav1.7; depolarization with veratridine (EC80) + scorpion venom
Give measured pIC50 for each item. Keep answers brief.
Answers are plain numbers, as −log10 of the molar value.

Known results for compounds:
1) CC(C)CO[C@H]1CCCC[C@@H]1N1CCN(c2cccc3c2cnn3-c2ccccc2F)C1=O [Example 280] ... 6.29
2) O=C1N(c2cccc3c2cnn3-c2ccccc2F)CCN1S(=O)(=O)C1CCCCC1 [Example 78] ... 5.53
3) O=C1N(Cc2nccs2)CCN1c1cccc2c1cnn2-c1ccccc1F [Example 34] ... 6.38

Noted for O=C(CN1CCN(c2cccc3c2cnn3-c2ccccc2F)C1=O)c1ccc(F)nc1 [Example 147] : its pIC50 reads 5.98

---

measurement-target: human Nav1.8 (Homo sapiens (Human))
method: FRET-based membrane potential assay, recombinant human sodium channel Nav1.8
run-conditions: HEK293 cells stably expressing recombinant human Nav1.8; depolarization with veratridine (EC80) + scorpion venom
Excerpt: FRET-Based Membrane Potential Assays. Recombinant, Human Sodium Channel, Nav1.8. […]
observed-property: IC50

Known results for compounds:
1) O=C(CN1CCN(c2cccc3c2cnn3-c2ccccc2F)C1=O)NC1COC1 ... 5.67 µM
2) CC(C)(C)OC(=O)CCN1CCN(c2cccc3c2cnn3-c2ccccc2F)C1=O ... 2.05 µM
3) Cc1cccc(-n2ncc3c(N4CCN(CC(=O)N5CC[C@H](F)C5)C4=O)cccc32)c1 ... 4.63 µM
4) O=C(CN1CCN(c2cccc3c2cnn3-c2ccccc2)C1=O)N1CC[C@H](F)C1 ... 1.42 µM
5) O=C(CN1CCN(c2cccc3c2cnn3-c2ccccc2F)C1=O)NCCC(F)(F)F ... 1.27 µM

Would you kindly look at the next entry?
Noted for "CC(C)(C)n1ncc2c(N3CCN(CC(=O)N4CC[C@H](F)C4)C3=O)cccc21" : its IC50 reads 20 µM

---

measurement-target: human Nav1.7 (Homo sapiens (Human))
Sequence (Q15858 whole entry): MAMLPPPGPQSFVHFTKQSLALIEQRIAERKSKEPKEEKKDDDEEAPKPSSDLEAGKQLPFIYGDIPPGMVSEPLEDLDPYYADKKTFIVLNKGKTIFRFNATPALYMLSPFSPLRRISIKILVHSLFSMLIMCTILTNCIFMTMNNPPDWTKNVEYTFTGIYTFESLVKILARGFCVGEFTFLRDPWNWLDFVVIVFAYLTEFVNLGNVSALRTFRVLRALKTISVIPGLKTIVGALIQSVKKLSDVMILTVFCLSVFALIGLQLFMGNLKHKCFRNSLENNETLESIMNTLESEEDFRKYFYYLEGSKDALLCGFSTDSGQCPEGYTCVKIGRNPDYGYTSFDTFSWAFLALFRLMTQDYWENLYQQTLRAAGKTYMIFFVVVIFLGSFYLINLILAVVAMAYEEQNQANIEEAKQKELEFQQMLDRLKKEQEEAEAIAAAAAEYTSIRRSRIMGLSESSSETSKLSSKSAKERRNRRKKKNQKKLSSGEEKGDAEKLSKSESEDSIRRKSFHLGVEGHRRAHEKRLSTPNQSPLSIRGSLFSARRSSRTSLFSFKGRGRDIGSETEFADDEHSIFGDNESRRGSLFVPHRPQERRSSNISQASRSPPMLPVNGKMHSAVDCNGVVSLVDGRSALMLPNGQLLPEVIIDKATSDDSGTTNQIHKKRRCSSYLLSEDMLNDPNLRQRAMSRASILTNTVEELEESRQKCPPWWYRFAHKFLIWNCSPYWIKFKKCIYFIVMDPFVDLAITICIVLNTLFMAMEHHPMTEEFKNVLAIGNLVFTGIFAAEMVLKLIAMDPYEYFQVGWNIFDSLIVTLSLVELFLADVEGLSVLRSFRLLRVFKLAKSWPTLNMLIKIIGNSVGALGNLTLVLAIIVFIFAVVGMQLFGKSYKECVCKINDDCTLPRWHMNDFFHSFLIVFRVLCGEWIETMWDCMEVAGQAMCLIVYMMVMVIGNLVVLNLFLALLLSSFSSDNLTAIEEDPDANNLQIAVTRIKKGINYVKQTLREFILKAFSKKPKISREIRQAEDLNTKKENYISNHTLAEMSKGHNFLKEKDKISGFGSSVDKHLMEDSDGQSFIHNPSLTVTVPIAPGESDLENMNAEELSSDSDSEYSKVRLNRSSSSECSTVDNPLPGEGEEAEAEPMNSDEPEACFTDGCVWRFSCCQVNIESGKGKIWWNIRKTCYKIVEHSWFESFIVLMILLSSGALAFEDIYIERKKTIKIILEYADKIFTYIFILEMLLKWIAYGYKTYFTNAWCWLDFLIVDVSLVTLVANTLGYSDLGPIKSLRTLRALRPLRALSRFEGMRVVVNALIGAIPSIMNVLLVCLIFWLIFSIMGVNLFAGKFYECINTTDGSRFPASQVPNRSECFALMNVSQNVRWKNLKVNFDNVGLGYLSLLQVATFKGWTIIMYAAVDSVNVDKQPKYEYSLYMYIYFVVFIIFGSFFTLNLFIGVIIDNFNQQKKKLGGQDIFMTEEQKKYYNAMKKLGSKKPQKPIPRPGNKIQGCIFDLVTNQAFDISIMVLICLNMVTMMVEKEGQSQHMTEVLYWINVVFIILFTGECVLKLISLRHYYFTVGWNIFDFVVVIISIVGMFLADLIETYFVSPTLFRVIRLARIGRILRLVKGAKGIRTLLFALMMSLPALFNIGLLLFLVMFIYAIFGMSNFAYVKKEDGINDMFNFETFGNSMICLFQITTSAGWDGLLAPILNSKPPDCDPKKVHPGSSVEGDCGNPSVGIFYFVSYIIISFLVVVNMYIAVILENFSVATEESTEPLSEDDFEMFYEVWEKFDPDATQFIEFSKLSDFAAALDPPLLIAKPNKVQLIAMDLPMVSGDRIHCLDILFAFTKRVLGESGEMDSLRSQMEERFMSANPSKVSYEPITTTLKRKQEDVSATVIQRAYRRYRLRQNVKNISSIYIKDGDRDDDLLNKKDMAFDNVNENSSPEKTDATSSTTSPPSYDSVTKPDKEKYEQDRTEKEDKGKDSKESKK
method: FRET-based membrane potential assay, recombinant human sodium channel Nav1.7
run-conditions: HEK293 cells stably expressing recombinant human Nav1.7; depolarization with veratridine (EC80) + scorpion venom
observed-property: pIC50
One number for each entry, as −log10 of the molar value.

Known results for compounds:
1) O=C1NCCN1CCN1CCN(c2cccc3c2cnn3-c2ccccc2F)C1=O ... 5.39
2) O=C(CN1CCN(c2cccc3c2cnn3-c2ccccc2F)C1=O)C1CCCC1 ... 5.68
3) O=C1N(Cc2cccnc2)CCN1c1cccc2c1cnn2-c1ccccc1F ... 5.91
4) O=C(CN1CCN(c2cccc3c2cnn3-c2ccccc2F)C1=O)NC1CCOCC1 ... 4.77
5) O=C1N(Cc2ncccn2)CCN1c1cccc2c1cnn2-c1ccccc1F ... 5.56
6) CC(=O)CN1CCN(c2cccc3c2cnn3-c2ccccc2F)C1=O ... 5.21
7) Cc1nc(CN2CCN(c3cccc4c3cnn4-c3ccccc3F)C2=O)oc1C ... 6.23
8) CC(C)c1cc(CN2CCN(c3cccc4c3cnn4-c3ccccc3F)C2=O)on1 ... 5.61
9) C[C@H]1CN(c2cccc3c2cnn3-c2ccccc2F)C(=O)N1Cc1ncco1 ... 5.86
10) CCOC(=O)/C=C\N1CCN(c2cccc3c2cnn3-c2ccccc2F)C1=O ... 5.24

Each compound below has a recorded value; state its pIC50.
1. O=C(CC1CCCC1)CN1CCN(c2cccc3c2cnn3-c2ccccc2F)C1=O
2. O=C(CN1CCN(c2cccc3c2cnn3-c2ccccc2F)C1=O)NCC1CCOC1 (stereo not shown)
3. O=C1N(CC(=O)N2C[C@H](O)C[C@@H]2c2cc(F)ccc2F)CCN1c1cccc2c1cnn2-c1ccccc1F

Response given:
5.90
5.13
5.62
